# Test: VP16 counterscreen qHTS for inhibitors of ROR gamma transcriptional activity;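 also: Gal4-VP16 expression switched on by copper sulfate through the metallothionein promoter; nearly all actives have a fitted effect of over 50% in size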
# Run conditions: Drosophila S2 Gal4-VP16 UAS-luciferase, luminescence, 20 h; series mostly up to 53.6 µM
Hit rate of the full screen: of about 310,000 compounds, about 11,000 (3.5%) were called active. About 8% were inconclusive and are not listed. Calls follow the shape of the dose curve; as a rule, active = well fitted inhibition curve with a large enough effect; inconclusive = small, poorly fitted or top-dose-only effect, or effect the other way; inactive = flat fitted curve, though single readings scatter. Shown is part of a subset that was picked to be rich in actives.
Write down one outcome, taken from active, inactive

Molecule: O=C(Nc1cc(N2CCOCC2)ncn1)NC1(C(F)(F)F)Oc2ccc(Cl)cc2O1 (configuration not stated)
Classification: active

Query: recorded result category for CC1=C(C(N)=O)C(c2ccc(F)cc2)n2nc(CCCO)nc2N1 (configuration not stated) in this test
inactive

Query: recorded result category for `CCC(=O)N1CCN(c2ccccc2NC(=O)COc2cccc(C)c2C)CC1` in this test
inactive

Query: recorded result category for COC(C(=O)Nc1ccc(C(C)=O)cc1)c1ccccc1 (configuration not stated) in this test
inactive

Query: recorded result category for Nc1ncc(CN2CCCC(C(=O)Nc3ccc(-c4ccco4)cc3)C2)cn1 (configuration not stated) in this test
inactive

* * *

# Test: VP16 counterscreen qHTS for inhibitors of ROR gamma transcriptional activity;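 also: Gal4-VP16 expression switched on by copper sulfate through the metallothionein promoter; nearly all actives have a fitted effect of over 50% in size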
# Run conditions: Drosophila S2 Gal4-VP16 UAS-luciferase, luminescence, 20 h; series mostly up to 53.6 µM
The campaign covered roughly 310,000 compounds. About 11,000 (3.5%) were called active. Not shown: some 8% with an inconclusive outcome. The call rests on the fitted dose curve; in most records, active means well fitted inhibition curve with a large enough effect; inconclusive means small, poorly fitted or top-dose-only effect, or effect the other way; inactive means flat fitted curve, though single readings scatter. The sample holds actives, similar compounds and a random draw of the others, so the mix is not that of the screen.
Write down one outcome, taken from active, inactive

Would you please look over these solved cases?
Compound: COc1ccccc1N1CCN(C(=O)c2cc(=O)c3cc(C)ccc3o2)CC1
Classification: inactive

Compound: COc1ccc(C2CC(=O)Nc3cc(C)c(C)cc32)c(OC)c1OC (stereo unspecified)
Classification: inactive

Compound: COc1ccc(-c2cc(=O)oc3cc(OC(C)C(=O)Nc4ccc(CN5CCOCC5)cc4)ccc23)cc1 (stereo unspecified)
Classification: inactive

Compound: COc1ccc(CNC(=O)c2cc(C(=O)C3CC3)c[nH]2)cc1
Classification: active

Compound: CC(C)CC(=O)c1c[nH]c(C(=O)NCc2ccccc2)c1
Classification: inactive

Moving on to the next compound.
Query: recorded result category for `COc1ccc(-n2c(C)csc2=S)cc1` in this test
inactive

* * *

# Test: VP16 counterscreen qHTS for inhibitors of ROR gamma transcriptional activity;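 also: Gal4-VP16 expression switched on by copper sulfate through the metallothionein promoter; nearly all actives have a fitted effect of over 50% in size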
# Run conditions: Drosophila S2 Gal4-VP16 UAS-luciferase, luminescence, 20 h; series mostly up to 53.6 µM
Among all 310,000 compounds or so, about 11,000 (3.5%) were called active. Roughly 8% stayed inconclusive and do not appear here. The call rests on the fitted dose curve; in most records, active means well fitted inhibition curve with a large enough effect; inconclusive means small, poorly fitted or top-dose-only effect, or effect the other way; inactive means flat fitted curve, though single readings scatter. Many of the other results were omitted from the sample, so actives are more common in it than they were.
Write down one outcome, taken from yes (1) = active, no (0) = inactive

Compound: CC1CN(S(=O)(=O)c2ccc(C(=O)Nc3sccc3C(N)=O)cc2)CC(C)O1 (stereo not given)
Classification: no (0)
--
Compound: CC(=O)Nc1ccc(S(=O)(=O)Oc2ccc(/C=N/N=C3/NC(=O)C(CC(=O)O)S3)cc2)cc1 (stereo not given)
Classification: no (0)
--
Compound: CCc1nnc(NC(=O)C2CCCN2S(=O)(=O)c2ccccc2)s1 (stereo not given)
Classification: no (0)

Query: recorded result category for `COc1ccc(NC(=O)CCCC2CCCCC2)c(OC)c1` in this test
no (0)

Query: recorded result category for CCC1C/C(=C/c2cccs2)C(=O)/C(=C/c2cccs2)C1 (stereo not given) in this test
no (0)

Query: recorded result category for CC1CCCCN1S(=O)(=O)c1ccc(C(=O)Nc2nnc(-c3cccs3)o2)cc1 (stereo not given) in this test
yes (1)

Query: recorded result category for `CCOc1ccc(C)cc1S(=O)(=O)NC1CCCCCC1` in this test
no (0)

Query: recorded result category for CCCCC1S/C(=N/N=C/c2cccs2)NC1=O (stereo not given) in this test
yes (1)

Query: recorded result category for `Cc1ccnc(NS(=O)(=O)c2ccc(NC(=O)c3ccc(S(=O)(=O)N4CCOCC4)cc3)cc2)n1` in this test
no (0)

Query: recorded result category for CSCc1nnc(NC(=O)c2ccc(S(=O)(=O)N3CCCCC3C)cc2)o1 (stereo not given) in this test
yes (1)
